Target: T1, thermostable variant of Streptomyces mobaraensis transglutaminase (Streptomyces mobaraensis, UniProt P81453 79-407)
T1 sequence: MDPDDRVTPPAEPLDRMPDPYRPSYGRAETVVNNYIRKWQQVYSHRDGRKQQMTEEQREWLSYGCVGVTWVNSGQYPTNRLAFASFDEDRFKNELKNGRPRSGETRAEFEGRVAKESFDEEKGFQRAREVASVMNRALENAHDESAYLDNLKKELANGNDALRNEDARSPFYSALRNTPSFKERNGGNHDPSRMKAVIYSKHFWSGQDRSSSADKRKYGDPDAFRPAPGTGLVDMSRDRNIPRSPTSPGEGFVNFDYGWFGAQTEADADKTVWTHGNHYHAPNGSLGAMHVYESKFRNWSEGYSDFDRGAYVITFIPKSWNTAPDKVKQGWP
Experiment: cell-based or functional assay
Measured Improvement in pH responsiveness of inhibitory peptide relative to WT by item

MDNGAGEGTKSYAETYRLTADDVANINALNESAPAASSAGPSFRAP [pro-peptide variant E8G]	> 1.2 fold
MDNGAGEETKSLAETYRLTADDVANINALNESAPAASSAGPSFRAP [pro-peptide variant Y12L]	> 1.2 fold
MDNGAGEQTKSYAETYRLTADDVANINALNESAPAASSAGPSFRAP [pro-peptide variant E8Q]	> 5 fold
MDNGAGEETKSYAETYRLTADDVANINALNESAPAASTAGPSFRAP [pro-peptide variant S38T]	> 1.2 fold
MDNGAGEETKSYAVTYRLTADDVANINALNESAPAASSAGPSFRAP [pro-peptide variant E14V]	> 1.2 fold
MDNGAGEETKSYAETYRLTADDVANINALNESAPAASSAGPSFRAW [pro-peptide variant P46W]	> 1.2 fold

Next, consider the following binder.
-- ask Which Improvement in pH responsiveness of inhibitory peptide relative to WT reading was recorded for the binder MDNGAGEETKTYAETYRLTADDVANINALNESAPAASSAGPSFRAP [pro-peptide variant S11T] ?
-- reply > 1.2 fold
